- test-method-notes: Therapeutic index, ratio of LD50 for ICR mouse assessed as acute mortality to ED50 for protection against chloroform-induced ventricular fibrillation in ICR mouse
- Assay type: organism-based, Cardiac ventricle
- applied-conditions: in vivo, read-out: Ratio LD50/ED50
A collection of compounds and their measured selectivity ratio
recorded-metric: selectivity ratio

[[record]]
compound = "CCN(CC)CCNC(=O)c1ccc(N)cc1.Cl [PROCAINAMIDE HYDROCHLORIDE]"
measured_number = 1.8

[[record]]
compound = "CCN(CC)CCNC(=O)c1ccc(O)cc1.Cl"
measured_number = 2.1


====

- test-method-notes: Toxicity in ip dosed ICR mouse assessed as acute mortality
- Format: organism-based
- applied-conditions: in vivo
A collection of compounds and their measured LD50
recorded-metric: LD50 (mg/kg)

[[record]]
compound = "CCN(CC)CCNC(=O)c1ccc(N)cc1.Cl [PROCAINAMIDE HYDROCHLORIDE]"
result_units = "mg/kg"
measured_number = 255

[[record]]
compound = "CCN(CC)CCNC(=O)c1ccc(O)cc1.Cl"
result_units = "mg/kg"
measured_number = 335

